# reported growth; entries follow
# Tested on: MCF7 breast
# MEASUREMENT NOTES: NCI-60 one-dose screen, 48 h (100 = growth as untreated, 0 = no growth, -100 = all killed)
# STUDY CONDITIONS: 10 µM unless noted
About 83,000 compounds went through this panel and 20% of them were active in at least one assay; those are over-represented in the sample as a whole.
Output spec: scalar in %, unitless text.

{"columns": ["COMPOUND", "growth / %"],
 "data": [
  ["COc1ccc2[nH]c(O)c(N=NC(=O)c3ccc4nc(-c5ccc(Cl)cc5)[nH]c4c3)c2c1", 24.5],
  ["COc1ccc(N=Nc2c(N)nn3c(-c4cc5ccccc5oc4=O)ccnc23)cc1", 29],
  ["O=C(c1ccc(O)cc1)C1[C@H](c2ccc(Cl)cc2)[C@@H](c2ccccc2)NC12C(=O)Nc1ccc(Br)cc12 (some centres undefined)", -22.1],
  ["COc1ccc(-c2cc(C(=O)N=Nc3c(O)[nH]c4ccc(Cl)cc34)c3ccccc3n2)cc1", 19.2],
  ["COc1cc(-c2ccc3ncnc(N4CCc5ccc(Cl)cc54)c3c2)cnc1Cl", 3.58]
]}

growth reading for COc1cc2cc(C(=O)N3C[C@@H](CCl)c4c3cc(OC(=O)N(C)CCSSCCN3CCOCC3)c3ccccc43)[nH]c2c(OC)c1OC : -33.5

growth reading for Cc1ccccc1Nc1nnc(-c2c[nH]c3ccccc23)o1 : 21.8

growth reading for N/C(=N\c1nc2ccccc2s1)NC(=O)Nc1ccccc1[N+](=O)[O-] : 12.8

growth reading for O=S(=O)(c1nc(-c2ccc(Br)cc2)oc1-c1ccc(Cl)cc1)N1CCCC(O)C1 (centres undefined) : 41.5

* * *

# Tested on: OVCAR-3 ovarian
# MEASUREMENT NOTES: NCI-60 one-dose screen, 48 h
# STUDY CONDITIONS: 10 µM unless noted
About 83,000 compounds went through this panel and 20% of them were active in at least one assay; those are over-represented in the sample as a whole. Activity calls are given as the source filed them. How the source made its calls: active means growth percent below 10; inactive means the rest.
Just give me one of these, please: yes (1) for active, no (0) for inactive

These solved cases illustrate the format of a correct answer.
{"columns": ["MOLECULE", "CLASS LABEL"],
 "data": [
  ["COc1ccc(/C=C/c2nc3ccccc3c(=O)n2CC(=O)Nc2ccccc2)cc1", "no (0)"],
  ["Cc1ccc(Cl)cc1NC(=O)N/C(N)=N/c1nc2ccccc2s1", "yes (1)"],
  ["CCCCNC(=S)Nc1ccc(OCc2nc3ccc(Cl)cc3[nH]2)cc1", "no (0)"],
  ["O=C(CSc1nc2ccccc2c(=O)[nH]1)Nc1ccccc1C(=O)O", "no (0)"],
  ["N/C(=N\\c1nc2ccccc2s1)NC(=O)Nc1ccccc1F", "yes (1)"],
  ["COc1cc(NC(=O)C(C)C)ccc1C(=O)NC(=S)Nc1ccc(S(N)(=O)=O)cc1", "no (0)"],
  ["COc1cc(C2CC(c3ccc(F)cc3)=Nc3c(N)nc(N)nc3N2)ccc1Oc1nc(Nc2ccc(F)cc2)nc(N(C)C)n1 (stereo not given)", "no (0)"],
  ["COc1ccc2c(c1)N=c1c-2cc2c(O)[nH]c(=S)n2c1=O", "no (0)"],
  ["COc1ccc(N=Nc2c(N)nn3c(-c4ccc(OC)c(OC)c4)ccnc23)cc1", "no (0)"]
]}

Turning now to a further record.
Entry O=C(N/N=C/c1ccsc1)c1[nH]c2ccc(Br)cc2c1-c1ccccc1 : call = ?
yes (1)

* * *

# Test system: SF-539 CNS
# MEASUREMENT NOTES: NCI-60 one-dose screen, 48 h (100 = growth as untreated, 0 = no growth, -100 = all killed)
# STUDY CONDITIONS: 10 µM unless noted
About 83,000 compounds went through this panel and 20% of them were active in at least one assay; those are over-represented in the sample as a whole.
# reported growth; entries follow
Output spec: scalar in %, unitless text.

Observe how each entry below is paired with its result.
{"columns": ["COMPOUND", "UNITS", "ENDPOINT VALUE"],
 "data": [
  ["O=C(Cc1c(-c2cccc([N+](=O)[O-])c2)n(-c2ncnc3c2c(-c2ccccc2)c(-c2ccccc2)n3Cc2ccccc2)[nH]c1=O)c1ccc(Cl)c(Cl)c1", "%", 60.7],
  ["COc1ccc2[nH]c(=O)c(CSc3ccccc3Nc3nccc(-c4ccc(C(F)(F)F)cc4)n3)cc2c1", "%", 0.901],
  ["C#CCN(C)CCCOc1ccc(N(C)C(=O)c2cc(C(C)C)c(O)cc2O)cc1Cl", "%", 17.3],
  ["O=C(NNC(=S)NC(=O)c1ccccc1)c1ccc(OCc2nc3ccc(Cl)cc3[nH]2)cc1", "%", -91.2],
  ["CCCCCCCCc1ccc(C(=O)Nc2ccc(C)c(OP(=O)(O)O)c2)cc1", "%", 93.4],
  ["COc1sc(/C=N/NC(=O)c2[nH]c3ccc(Br)cc3c2-c2ccccc2)cc1Br", "%", -64.1],
  ["O=C1Nc2ccccc2/C1=C/C(=O)c1cc2ccccc2oc1=O", "%", 102],
  ["COc1ccc(NC(=O)CSc2nnc(-c3ccc(-c4nc5ccccc5[nH]4)cc3)o2)cc1", "%", -86.6]
]}

Now consider the entry below.
With SF-539 CNS as the test system, Clc1ccc(CNc2nc(SCCN3CCOCC3)nc3c2cnn3CC(Cl)c2ccc(Br)cc2)cc1 (centres undefined) showed growth of 27.4

* * *

# reported growth; entries follow
# Test system: MOLT-4 leukemia
# MEASUREMENT NOTES: NCI-60 one-dose screen, 48 h (100 = growth as untreated, 0 = no growth, -100 = all killed)
# STUDY CONDITIONS: 10 µM unless noted
Compounds without any hit were thinned out: in the full panel of roughly 83,000, 20% have a hit.
Output spec: scalar in %, unitless text.

Observe how each entry below is paired with its result.
{"columns": ["COMPOUND", "ENDPOINT VALUE"],
 "data": [
  ["COc1cc(C2CC(c3ccc(C(F)(F)F)cc3)=Nc3c(N)nc(N)nc3N2)ccc1Oc1nc(Nc2ccc(F)cc2)nc(N(C)C)n1 (centres undefined)", 4.31],
  ["O=C(N/N=C/c1ccc(B(O)O)s1)c1[nH]c2ccc(Br)cc2c1-c1ccccc1", -8],
  ["N#C/C(=C/c1ccc(Cl)cc1)c1nnc(NC(=O)c2ccc(-n3c(=O)[nH]c4ccccc4c3=O)cc2)s1", 94.9],
  ["O=C(CSc1nnc(-c2ccc(-c3nc4ccc(Cl)cc4[nH]3)cc2)o1)Nc1ccc(Br)cc1", 13.9],
  ["CCOC(=O)c1ccc(NC(=S)NC(=O)c2cccc(NC(=O)c3ccc(C)cc3)c2)cc1", 70.4]
]}

growth reading for O=C(Nc1nc2ccc([N+](=O)[O-])cc2s1)Nc1ccccc1F : 15.7

growth reading for COc1cccc(C(N)=Nc2ccc(OCCCCCCCCn3cncn3)cc2)c1 : 16.8

growth reading for Cc1cc(C(NC(=O)C2CC3(CC(Nc4cccc5c4C(=O)N(C4CCC(=O)NC4=O)C5=O)C3)C2)c2ccc3c(c2)OC(F)(F)O3)c(O)c2ncccc12 (centres undefined) : 4.24

growth reading for COC(=O)c1cc(C(=O)CBr)n2c1ccc1c3ccccc3ccc12 : 6.44

* * *

# Test system: SNB-75 CNS
# MEASUREMENT NOTES: NCI-60 one-dose screen, 48 h (100 = growth as untreated, 0 = no growth, -100 = all killed)
# STUDY CONDITIONS: 10 µM unless noted
# Experimental: Growth inhibition of the SNB-75 human tumor cell line is measured as a screen for anti-cancer activity. Cells are grown in 96 well plates and exposed to the test compound for 48 hours. Compounds are tested at a single concentration, which is 10^-5 M for most compounds. The reported endpoint is percent growth (GI% or GIPRCNT), where numbers from 0 - 100% represent growth inhibition, and numbers from -100% - 0 represent cell death. For example, a value of 40 represents 60% growth inhibition. […]
The panel holds about 83,000 compounds, 20% with a hit somewhere; the sample as a whole holds those more often.
ENDPOINT LABEL: growth (%)
Output spec: scalar in %, unitless text.

Observe how each entry below is paired with its result.
{"columns": ["COMPOUND", "ENDPOINT LABEL", "UNITS", "ENDPOINT VALUE"],
 "data": [
  ["Cc1ccccc1Nc1nnc(-c2c[nH]c3ccccc23)o1", "growth", "%", 26],
  ["COc1ccc2[nH]cc(-c3cc4nc(-c5cn(C)c6ncc(Br)cc56)cc(N)n4n3)c2c1", "growth", "%", -56.9],
  ["S=C(Nc1ccccc1)Nc1ccc(OCc2nc3ccc(Cl)cc3[nH]2)cc1", "growth", "%", 89.4],
  ["C=CC[n+]1cccc2c3ccccc3ccc21", "growth", "%", 49.8],
  ["COc1c(B(O)O)cc(F)cc1-c1nc2ccc3[nH]ncc3c2c2c1COCC2", "growth", "%", 0.778]
]}

With SNB-75 CNS as the test system, CCCCCCCCc1ccc(C(=O)Nc2ccc(C)c(OP(=O)(O)O)c2)cc1 showed growth of 89.8

With SNB-75 CNS as the test system, O=C(CSc1nnc(-c2ccc(-c3nc4ccccc4[nH]3)cc2)o1)Nc1ccc(Cl)cc1 showed growth of 62.4

With SNB-75 CNS as the test system, FC(F)(F)c1cc2c(Cl)ncnc2n1CCN1CCOCC1 showed growth of 53.5

With SNB-75 CNS as the test system, COc1ccc(-c2cc(-c3cc(C(C)C)c(O)cc3C)nn2-c2ccc(S(N)(=O)=O)cc2)cc1 showed growth of -0.16

With SNB-75 CNS as the test system, COc1ccc2c(c1)C(=O)N(C)C2C1c2c(cc3c(c2OC)OCO3)CCN1C (stereo not given) showed growth of 37.3

Values compiled from PubChem BioAssay (NCI).
